Tested on: 786-0 complex spheroids with HUVEC/MSC, growth % test/control
protocol_description: Anticancer human tumor 786-0 cell line growth inhibition [AhR];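 note: compound exposure lasted seven days before the read-out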
experimental_conditions: curve of first compound; second compound 3.16 µM
pIC50: −log10 of the molar value.
experimental_endpoint: pIC50

molecule	measurement_target	op	numeric_value
Cn1ncnc1C1c2n[nH]c(=O)c3cc(F)cc(c23)NC1c1ccc(F)cc1 (configuration not stated) + CC(CO)NC(=O)c1cc(-c2ccc(Cl)cc2)nn(-c2cnn(C)c2)c1=O	786-0 complex spheroids with HUVEC/MSC, growth % test/control	<	7.00
Nc1ccccc1NC(=O)c1ccc(CNC(=O)OCc2cccnc2)cc1 + Cc1cncc(-c2nc(NCCc3c[nH]c4ccccc34)c3ncn(C(C)C)c3n2)c1	786-0 complex spheroids with HUVEC/MSC, growth % test/control	=	5.34
CCc1c2c(nc3ccc(O)cc13)-c1cc3c(c(=O)n1C2)COC(=O)[C@]3(O)CC + Cc1ccccc1N=Nc1ccc(NC(=O)c2ccnn2C)c(C)c1	786-0 complex spheroids with HUVEC/MSC, growth % test/control	=	8.21
NS(=O)(=O)OCC1CC(n2ccc3c(NC4CCc5ccccc54)ncnc32)CC1O (configuration not stated) + Cc1cncc(-c2nc(NCCc3c[nH]c4ccccc34)c3ncn(C(C)C)c3n2)c1	786-0 complex spheroids with HUVEC/MSC, growth % test/control	=	6.51
CCc1c2c(nc3ccc(O)cc13)-c1cc3c(c(=O)n1C2)COC(=O)[C@]3(O)CC + Cc1cncc(-c2nc(NCCc3c[nH]c4ccccc34)c3ncn(C(C)C)c3n2)c1	786-0 complex spheroids with HUVEC/MSC, growth % test/control	=	8.82
COc1cc(C2c3cc4c(cc3C(OC3OC5COC(C)OC5C(O)C3O)C3COC(=O)C23)OCO4)cc(OC)c1O (configuration not stated) + Cc1ccccc1N=Nc1ccc(NC(=O)c2ccnn2C)c(C)c1	786-0 complex spheroids with HUVEC/MSC, growth % test/control	=	6.05
CC[C@@]1(O)C(=O)OCc2c1cc1n(c2=O)Cc2cc3c(CN(C)C)c(O)ccc3nc2-1 + CC(CO)NC(=O)c1cc(-c2ccc(Cl)cc2)nn(-c2cnn(C)c2)c1=O	786-0 complex spheroids with HUVEC/MSC, growth % test/control	=	7.27
Nc1ccn(C2OC(CO)C(O)C2(F)F)c(=O)n1 (configuration not stated) + Cc1cncc(-c2nc(NCCc3c[nH]c4ccccc34)c3ncn(C(C)C)c3n2)c1	786-0 complex spheroids with HUVEC/MSC, growth % test/control	>	7.50
Nc1ncn(C2CC(O)C(CO)O2)c(=O)n1 (configuration not stated) + Cc1cncc(-c2nc(NCCc3c[nH]c4ccccc34)c3ncn(C(C)C)c3n2)c1	786-0 complex spheroids with HUVEC/MSC, growth % test/control	<	6.00
CC1(C)CCC(CN2CCN(c3ccc(C(=O)NS(=O)(=O)c4ccc(NCC5CCOCC5)c([N+](=O)[O-])c4)c(Oc4cnc5[nH]ccc5c4)c3)CC2)=C(c2ccc(Cl)cc2)C1 + Cc1ccccc1N=Nc1ccc(NC(=O)c2ccnn2C)c(C)c1	786-0 complex spheroids with HUVEC/MSC, growth % test/control	<	5.00
COc1cccc2c1C(=O)c1c(O)c3c(c(O)c1C2=O)CC(O)(C(=O)CO)CC3OC1CC(N)C(O)C(C)O1 (configuration not stated) + Cc1cncc(-c2nc(NCCc3c[nH]c4ccccc34)c3ncn(C(C)C)c3n2)c1	786-0 complex spheroids with HUVEC/MSC, growth % test/control	>	7.50
O=C(c1cc(Cc2n[nH]c(=O)c3ccccc23)ccc1F)N1CCN(C(=O)C2CC2)CC1 + Cc1ccccc1N=Nc1ccc(NC(=O)c2ccnn2C)c(C)c1	786-0 complex spheroids with HUVEC/MSC, growth % test/control	<	5.00
